Source: paper PMC9540497

# Type: in vivo, human
# Conditions used: female, human, plasma, oral, t 1/2, mean (CV%), OC + ziritaxestat 600 mg q.d. (day 18, MD), n = 13
Value kind: half-life (h)
Give your result in h as a bare value.

Inquiry: Give reported half-life value for `C[C@]12CCC(=O)C=C1[C@@H]1C[C@@H]1[C@H]1[C@@H]3[C@@H]4C[C@@H]4[C@@]4(CCC(=O)O4)[C@@]3(C)CC[C@@H]12`
Reply text: 43.4

----------
The reader will find reported Cmax values listed item by item below.
# Format: in vivo, human
# Conditions used: female, human, plasma, oral, Cmax, mean (CV%), OC alone (day 1), n = 15
Give your result in ng/mL as a bare value.

[
  {
    "Input smiles": "C[C@]12CCC(=O)C=C1[C@@H]1C[C@@H]1[C@H]1[C@@H]3[C@@H]4C[C@@H]4[C@@]4(CCC(=O)O4)[C@@]3(C)CC[C@@H]12",
    "Meas value": 20.7
  }
]

Inquiry: Give reported Cmax value for `C#C[C@]1(O)CC[C@H]2[C@@H]3CCc4cc(O)ccc4[C@H]3CC[C@@]21C`
Reply text: 0.047

----------
# Type: in vivo, human
# Conditions used: female, human, plasma, oral, AUC0–inf, mean (CV%), OC + ziritaxestat 600 mg q.d. (day 8, SD), n = 14
The reader will find reported AUC(0-inf) values listed item by item below.
Give your result in ng·h/mL as a bare value.

[
  {
    "Input smiles": "C#C[C@]1(O)CC[C@H]2[C@@H]3CCc4cc(O)ccc4[C@H]3CC[C@@]21C",
    "Value kind": "AUC(0-inf)",
    "Meas value": 2.02
  }
]

Inquiry: Give reported AUC(0-inf) value for `C[C@]12CCC(=O)C=C1[C@@H]1C[C@@H]1[C@H]1[C@@H]3[C@@H]4C[C@@H]4[C@@]4(CCC(=O)O4)[C@@]3(C)CC[C@@H]12`
Reply text: 686
